# assay.target: Serine/threonine-protein kinase ULK3 (Homo sapiens)
# test.parameters: at 1 µM
Field: residual activity. Provide a value for each of the compounds that follow.
The response must be a number in % with no trailing unit.

The recorded residual activity for Cn1nc2c3c(cccc31)C(=O)c1ccccc1-2 is 89

So for O=C(O)c1ccc2c3c1cccc3c(=O)n1c3ccccc3nc21 , the logged residual activity turned out to be 91

// recorded residual activity for CC(=O)c1ccc(N2CCOCC2)cc1O : 106

The recorded residual activity for O=C1Nc2ccccc2/C1=C1/Nc2ccccc2/C1=N\OCCC(O)CO (stereo unspecified) is 27

Looking up O=C1NC(=O)c2cc(Nc3ccc(F)cc3)c(Nc3ccc(F)cc3)cc21 , I found its residual activity recorded as 107

Lab book: residual activity of Oc1c2ccccc2c2c3c(cccc13)N=N2 noted as 73

Memo: Cc1nc2cc3nc(-c4cccs4)cnc3cc2n1C , reported residual activity: 106

Reported residual activity of COc1cc2ncnc(N3CCN(C(=O)Nc4ccc(Oc5ccccc5)cc4)CC3)c2cc1OC : 97

Measured residual activity, COc1ccc(CNc2nc(N(CCO)CCO)nc3c2ncn3C(C)C)cc1 : 81

Lab note: measured residual activity of CNc1cc2c(Nc3cccc(Br)c3)ncnc2cn1 was 103

So, CCOc1cc2ncnc(Nc3cccc(Br)c3)c2cc1OCC ? Its residual activity was 96
